Below is a list of entries, each paired with its recorded fraction unbound value.
experiment description: Protein binding in human plasma by equilibrium dialysis assay
Type: ADME, cell-free
stated conditions: read-out: PPB (converted)
property: fraction unbound

{"test smiles": "COc1ccc2ccc(=O)n(CCN[C@@H]3CC[C@@H]4[C@@H](C3)OC(=O)N4c3ccc4c(n3)NC(=O)CO4)c2n1", "property": "fraction unbound", "assay value": 0.947}
{"test smiles": "COc1ccc2ccc(=O)n(CCN[C@@H]3CC[C@@H]4[C@H](C3)OC(=O)N4c3ccc4c(n3)NC(=O)CO4)c2n1", "property": "fraction unbound", "assay value": 0.965}
{"test smiles": "COc1ccc2ccc(=O)n(CCN[C@H]3CC[C@H]4[C@@H](C3)OC(=O)N4c3ccc4c(n3)NC(=O)CO4)c2n1", "property": "fraction unbound", "assay value": 0.919}
{"test smiles": "COc1ccc2ccc(=O)n(CCN[C@H]3CC[C@H]4[C@H](C3)OC(=O)N4c3ccc4c(n3)NC(=O)CO4)c2n1", "property": "fraction unbound", "assay value": 0.856}
{"test smiles": "O=c1ccc2ncc(=O)n3c2n1C[C@H]3CN1CCC(NCc2cc3c(cn2)OCCC3)CC1", "property": "fraction unbound", "assay value": "< 0.7"}

---

Tested on: Pseudomonas aeruginosa
experiment description: Antibacterial activity against Pseudomonas aeruginosa ATCC 27853 assessed as bacterial growth inhibition by CLSI protocol based assay
Assay type: functional
Below is a list of entries, each paired with its recorded MIC value.
property: MIC (µg/mL)

{"test smiles": "O=C1COc2ccc(N3C(=O)O[C@H]4C[C@@H](NCCCn5c(=O)cnc6ccc(F)cc65)CC[C@@H]43)nc2N1", "target or system": "Pseudomonas aeruginosa", "property": "MIC", "cmp": "=", "assay value": 1}
{"test smiles": "COc1cnc2ccc(=O)n(CCN[C@H]3CC[C@H]4[C@H](C3)OC(=O)N4c3ccc4c(n3)NC(=O)CO4)c2n1", "target or system": "Pseudomonas aeruginosa", "property": "MIC", "cmp": "=", "assay value": 1}
{"test smiles": "COc1ccc2ccc(=O)n(CCN[C@@H]3CC[C@@H]4[C@H](C3)OC(=O)N4c3ccc4c(n3)NC(=O)CO4)c2n1", "target or system": "Pseudomonas aeruginosa", "property": "MIC", "cmp": "=", "assay value": 4}
{"test smiles": "O=C1COc2ccc(N3C(=O)O[C@H]4C[C@@H](NCCn5c(=O)ccc6ccc(C(=O)O)cc65)CC[C@@H]43)nc2N1", "target or system": "Pseudomonas aeruginosa", "property": "MIC", "cmp": ">", "assay value": 64}
{"test smiles": "COc1ncc2ccc(=O)n(CCN[C@H]3CC[C@H]4[C@H](C3)OC(=O)N4c3ccc4c(n3)NC(=O)CO4)c2n1", "target or system": "Pseudomonas aeruginosa", "property": "MIC", "cmp": ">", "assay value": 64}
{"test smiles": "N#Cc1ccc2ccc(=O)n(CCN[C@H]3CC[C@H]4[C@H](C3)OC(=O)N4c3ccc4c(n3)NC(=O)CO4)c2c1", "target or system": "Pseudomonas aeruginosa", "property": "MIC", "cmp": "=", "assay value": 2}
{"test smiles": "COc1ccc2ccc(=O)n(CCN[C@@H]3CC[C@@H]4[C@@H](C3)OC(=O)N4c3ccc4c(n3)NC(=O)CO4)c2n1", "target or system": "Pseudomonas aeruginosa", "property": "MIC", "cmp": "=", "assay value": 0.25}
